Catalogue of compounds with associated T/C % of MST
System: B16 melanoma
TEST PROTOCOL: In vivo antitumor activity against B16 melanoma in mice (ip, Q4Dx3)
Set-up: species or system mice (male BDF1)
RUN PARAMETERS: 3 mg/kg/day, Q4Dx3 ip
Structures can show the parent of a compound that is named as a salt.
REPORTED METRIC: T/C % of MST (%)

CO[C@H]1[C@@H](O)[C@@H](C)O[C@H](O[C@H]2[C@H](Oc3cccc4c(O)c5c(=O)oc6ccc(C)c7c(=O)oc(c34)c5c67)O[C@H](C)[C@H](O)[C@]2(C)O)[C@@H]1N(C)C [Compound 4e, 2"-N,N-Dimethylelsamicin A] :: 109
CO[C@H]1[C@@H](O)[C@@H](C)O[C@H](O[C@H]2[C@H](Oc3cccc4c(O)c5c(=O)oc6ccc(C)c7c(=O)oc(c34)c5c67)O[C@H](C)[C@H](O)[C@]2(C)O)[C@@H]1NC=N [Compound 5, hydrochloride] :: 126
CO[C@@H]1[C@@H](N)[C@@H](O[C@H]2[C@H](Oc3cccc4c(O)c5c(=O)oc6ccc(C)c7c(=O)oc(c34)c5c67)O[C@H](C)[C@H](O)[C@]2(C)O)O[C@H](C)[C@@H]1O [Compound 1, Elsamicin A] :: 208
CN[C@H]1[C@@H](O[C@H]2[C@H](Oc3cccc4c(O)c5c(=O)oc6ccc(C)c7c(=O)oc(c34)c5c67)O[C@H](C)[C@H](O)[C@]2(C)O)O[C@H](C)[C@H](O)[C@@H]1OC [Compound 4d, 2"-N-Methylelsamicin A] :: 115
